Listed next: entries and their corresponding Efficacy (IL-2 production, BMS = 100%).
Molecular target: T1, human LAG3 expressed on cells (human, UniProt P18627 23-525)
T1 sequence (looked up): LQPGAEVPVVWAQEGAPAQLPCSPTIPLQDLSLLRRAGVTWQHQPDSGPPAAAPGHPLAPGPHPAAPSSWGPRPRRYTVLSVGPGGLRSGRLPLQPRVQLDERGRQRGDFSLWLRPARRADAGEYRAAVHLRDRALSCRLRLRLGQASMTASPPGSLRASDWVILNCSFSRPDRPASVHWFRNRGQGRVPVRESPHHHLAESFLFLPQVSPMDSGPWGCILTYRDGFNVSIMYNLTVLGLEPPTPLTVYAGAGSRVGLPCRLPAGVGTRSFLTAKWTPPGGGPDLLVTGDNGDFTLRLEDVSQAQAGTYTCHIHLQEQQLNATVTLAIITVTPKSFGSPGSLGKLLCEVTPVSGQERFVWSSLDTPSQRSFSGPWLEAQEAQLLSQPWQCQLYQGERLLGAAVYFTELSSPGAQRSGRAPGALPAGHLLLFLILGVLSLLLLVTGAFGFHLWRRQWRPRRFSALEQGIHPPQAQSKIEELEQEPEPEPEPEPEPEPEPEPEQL
Assay: cell-based or functional assay
Readout name: Efficacy (IL-2 production, BMS = 100%)

sdAb No. 24 (VHH, Fc of the tested form not described; also called sdAb 24; not shown: Fc part implied by anti-human Fc capture) VHH: QLQLVESGGGLVQPGGSLRLSCAASGFTLNEHAIGWFRQAPGKEREGVSCISSSDGSTYYHDSVKGRFTMSRDDAKNTVYLQMNSLKAEDTAIYYCAAALGRDCQGGQWKTSSWGQGTQVTVSS
44.7
sdAb No. 18 (VHH, Fc of the tested form not described; also called sdAb 18; not shown: Fc part implied by anti-human Fc capture) VHH: QVQLVESGGGLVQPGGSLRLSCAASGFTLNEHAIGWFRRAPGKEREGVSCISSSDGSTYYHDSVKGRFNMSRDDAKNSVYLQMSSLKPEDTAIYYCAAALGRDCQGGQWKTSSWGQGTQVTVSS
51.9
sdAb No. 1 (VHH, the tested form was captured by anti-human Fc, its Fc is not described; also called sdAb 1; not shown: Fc part implied by anti-human Fc capture) VHH: QLQLVESGGGLVQAGGSLRLSCAASGFTFDDYAIGWFRQAPGKEREGVSCIRSSDGSTYYADSVKGRFTISSDNAKNTVYLQMNSLKPEDTAVYYCAKDNYSDCRGPYHYWGQGTQVTVSS
41.4
sdAb No. 25 (VHH, Fc of the tested form not described; also called sdAb 25; sdAb #25; not shown: Fc part implied by anti-human Fc capture and anti-human IgG Fc detection) VHH: QLQLVESGGGLVQAGGSLRLSCAASGSIESFSFMGWYRQAPGKQRELVAGFTGAASLSFSTYTDAVKGRFTISRDNAKNTVYLQMNSLKPEDTAVYFCNVDPWSQSWPGRYWGQGTQVTVSS
43.4

Entry source: patent US20230303690A1
